Tested on: HEL92.1.7
Test: Cell growth inhibition assay, blood cancer cell line HEL92.1.7
Assay type: cell-based
Conditions: Homo sapiens, HEL 92.1.7, HEL92.1.7 blood cancer cell line
Description: The inhibitory effects of the compounds of the present invention against the growth of cancer cells were evaluated as shown below. […] Subsequently, the cells were observed under microscope and drug precipitation and particular findings were investigated and recorded. […]
MEASUREMENT NAME: IC50 (µM)

                                smiles_code  measurement_name  result_value
0  CC(C)Oc1cc(OC(F)(F)F)cc(C(C)(C)c2cc(Cl)cc(NC(=O)c3cc4cc(NS(=O)(=O)c5ccn(C)n5)ccc4s3)c2)c1              IC50           0.3
1  CC(C)Oc1cc(OC(F)(F)F)cc(C(C)(C)c2cc(Cl)cc(NC(=O)c3cc4nc(NS(C)(=O)=O)ccc4s3)c2)c1              IC50          0.36
2  COc1cc(OC(F)(F)F)cc(C(C)(C)c2cc(Br)cc(NC(=O)c3cc4ccc(NS(C)(=O)=O)cc4[nH]3)c2)c1              IC50          0.14
3  CC(C)(c1cc(Br)cc(NC(=O)c2cc3cc(NS(C)(=O)=O)ccc3s2)c1)c1cc(OC(F)(F)F)cc(OC(F)(F)C(F)F)c1              IC50         0.091
4  COc1cc(OC(F)(F)F)cc(-c2cc(Cl)cc(NC(=O)c3cc4cc(N(C)S(C)(=O)=O)c(F)cc4s3)c2)c1              IC50          0.26
5  CC(C)(c1cc(F)cc(NC(=O)c2cc3cc(NS(C)(=O)=O)ncc3s2)c1)c1cc(OC(F)(F)F)cc(OC(F)(F)C(F)F)c1              IC50          0.23

* * *

tested on: DU-145; test: Cell growth inhibition assay, prostate cancer cell line DU-145; assay type: cell-based; settings: Homo sapiens, DU-145 prostate cancer cell line
Reported IC50 values for a set of compounds
MEASUREMENT NAME: IC50 (µM)

>>> df
                                smiles_code  target  readout_units  measurement_qualifier  result_value
0  CC(C)(c1cc(Cl)cc(NC(=O)c2cc3cc(NS(C)(=O)=O)ccc3s2)c1)n1ncccc1=O  DU-145             µM                      >           1.1
1  CS(=O)(=O)Nc1ccc2sc(C(=O)Nc3cc(Cl)cc(-c4ccc(F)cc4F)c3)cc2c1  DU-145             µM                      =         0.035
2  COc1ccc(OC)c(C(C)(C)c2cc(Cl)cc(NC(=O)c3cc4cc(NS(C)(=O)=O)ccc4s3)c2)c1  DU-145             µM                      =          0.25
3  CC(C)(c1cc(Br)cc(NC(=O)c2cc3cc(NS(C)(=O)=O)ccc3s2)c1)c1ccc(F)cc1F  DU-145             µM                      =          0.06
4  CC(C)Oc1cc(OC(F)(F)F)cc(C(C)(C)c2cc(Cl)cc(NC(=O)c3cc4cc(N5CCCCS5(=O)=O)ccc4s3)c2)c1  DU-145             µM                      =         0.014
